FYI, the data here is from the supplement of paper PMC12669032.

system: Collinsella aerofaciens; assay: growth AUC relative to DMSO control (median of replicates) (fraction); higher = more growth (less inhibition), active = hit call of the paper; conditions: 20 µM; 24 h
Returns Fulfilled if the recorded growth AUC is greater than or equal to 1, and Not fulfilled otherwise.

Below are worked cases with known answers.
{"compound": "CCSC(=O)N(CC)C1CCCCC1", "target-system": "Collinsella aerofaciens", "assigned-label": "Fulfilled"}
{"compound": "c1ccc2c(c1)cc1ccc3cccc4ccc2c1c34", "target-system": "Collinsella aerofaciens", "assigned-label": "Fulfilled"}
{"compound": "COP(=S)(NC(C)C)Oc1ccc(C)cc1[N+](=O)[O-] (configuration not stated)", "target-system": "Collinsella aerofaciens", "assigned-label": "Fulfilled"}
{"compound": "CCOc1ccccc1OS(=O)(=O)NC(=O)Nc1nc(OC)cc(OC)n1", "target-system": "Collinsella aerofaciens", "assigned-label": "Fulfilled"}
{"compound": "FC(F)C(F)(F)OCC(Cn1cncn1)c1ccc(Cl)cc1Cl (configuration not stated)", "target-system": "Collinsella aerofaciens", "assigned-label": "Not fulfilled"}
{"compound": "CCOP(=O)(SC(C)CC)N1CCSC1=O (configuration not stated)", "target-system": "Collinsella aerofaciens", "assigned-label": "Fulfilled"}
{"compound": "CC1=NNC(=O)N(/N=C/c2cccnc2)C1", "target-system": "Collinsella aerofaciens", "assigned-label": "Fulfilled"}
{"compound": "COP(=O)(OC)SCn1c(=O)oc2cc(Cl)cnc21", "target-system": "Collinsella aerofaciens", "assigned-label": "Fulfilled"}

Consider the record given below.
Request: Check if growth AUC >= 1 (inclusive). Item: "COC(=O)c1ccccc1S(=O)(=O)NC(=O)Nc1nc(C)cc(C)n1"
Result: Not fulfilled

* * *

test system: Odoribacter splanchnicus; assay: growth AUC relative to DMSO control (median of replicates) (fraction); higher = more growth (less inhibition), active = hit call of the paper; conditions: 20 µM; 24 h
I'd be grateful if you could share measured growth AUC for these entries.
Numbers only.

Field: growth AUC. Fill in for each record below.
1. CO/N=C(/C(=O)OC)c1ccccc1COc1ccccc1C
2. CCCOP(=S)(OCCC)SCC(=O)N1CCCCC1C (stereo not drawn)
3. COc1nc(C)nc(NC(=O)NS(=O)(=O)c2ccccc2Cl)n1
4. O=C(NC(=O)c1c(F)cccc1F)Nc1ccc(Oc2ccc(C(F)(F)F)cc2Cl)cc1F
5. Nc1cc(Cl)ccc1Cl
6. COP(=S)(OC)Oc1cc(Cl)c(Cl)cc1Cl
7. CCOP(=S)(OCC)Oc1cc(Cl)c(SC)cc1Cl

Result:
0.92
1.01
0.952
0.978
1
0.88
1.12

Field: growth AUC. Fill in for each record below.
1. N#Cc1cc(Br)c(O)c(Br)c1
2. Clc1ccc(C2(Cn3cncn3)OCCO2)c(Cl)c1

Result:
[1.1, 0.923]

* * *

tested on: Bacteroides stercoris; assay: growth AUC relative to DMSO control (median of replicates) (fraction); higher = more growth (less inhibition), active = hit call of the paper; settings: 20 µM; 24 h
Returns Yes if the recorded growth AUC is greater than or equal to 0.9, and No otherwise.

{"compound": "O=C(NC(=O)c1c(F)cccc1F)Nc1ccc(CO/N=C(\\c2ccc(Cl)cc2)C2CC2)cc1", "target-system": "Bacteroides stercoris", "assigned-label": "Yes"}
{"compound": "O=P(O)(O)CCCl", "target-system": "Bacteroides stercoris", "assigned-label": "Yes"}
{"compound": "CCOP(=S)(NC(C)CC)Oc1cc(C)ccc1[N+](=O)[O-] (stereo unspecified)", "target-system": "Bacteroides stercoris", "assigned-label": "No"}
{"compound": "CC1(C)C(C=C(Cl)Cl)C1C(=O)OC(C#N)c1ccc(F)c(Oc2ccccc2)c1 (mixture of isomers)", "target-system": "Bacteroides stercoris", "assigned-label": "Yes"}

Request: Check if growth AUC >= 0.9 (inclusive). Item: COCc1c(F)c(F)c(COC(=O)C2C(C=C(C)C)C2(C)C)c(F)c1F (stereo unspecified)
Result: Yes
